- TARGET_SYSTEM: human ROR1 on stably transfected cells (NCI-H1993-ROR1, MDA-MB-468-ROR1, NCI-H1975-ROR1, 293T-ROR1-NF-kB) (human, UniProt Q01973 30-937)
- Sequence (Q01973 30-937 limits assumed): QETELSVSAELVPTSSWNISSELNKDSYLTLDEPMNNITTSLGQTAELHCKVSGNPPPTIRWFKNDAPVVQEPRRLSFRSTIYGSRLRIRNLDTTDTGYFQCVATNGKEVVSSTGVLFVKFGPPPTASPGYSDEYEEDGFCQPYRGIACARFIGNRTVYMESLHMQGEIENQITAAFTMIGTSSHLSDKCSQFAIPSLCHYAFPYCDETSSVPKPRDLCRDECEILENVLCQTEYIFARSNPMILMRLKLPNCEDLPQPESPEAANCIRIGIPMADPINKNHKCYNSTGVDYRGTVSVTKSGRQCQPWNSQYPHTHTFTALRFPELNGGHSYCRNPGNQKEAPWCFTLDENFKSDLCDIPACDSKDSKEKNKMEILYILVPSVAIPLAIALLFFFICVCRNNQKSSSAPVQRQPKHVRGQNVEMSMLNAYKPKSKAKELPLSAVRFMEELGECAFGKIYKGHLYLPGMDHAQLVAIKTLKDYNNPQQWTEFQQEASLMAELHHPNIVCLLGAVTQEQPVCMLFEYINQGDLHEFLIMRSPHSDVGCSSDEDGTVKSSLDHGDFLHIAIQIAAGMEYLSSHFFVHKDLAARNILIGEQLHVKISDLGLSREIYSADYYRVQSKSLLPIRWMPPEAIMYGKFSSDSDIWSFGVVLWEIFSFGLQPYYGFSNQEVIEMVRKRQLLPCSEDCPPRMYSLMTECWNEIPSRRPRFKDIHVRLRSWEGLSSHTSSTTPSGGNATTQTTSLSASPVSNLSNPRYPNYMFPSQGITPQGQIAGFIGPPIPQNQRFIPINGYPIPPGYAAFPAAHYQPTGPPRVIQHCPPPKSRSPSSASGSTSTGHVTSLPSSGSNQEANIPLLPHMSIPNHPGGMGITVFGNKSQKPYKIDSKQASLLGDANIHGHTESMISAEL
- ASSAY_PROTOCOL: cell-based or functional assay
Recorded Internalization EC50 (nM), NCI-H1975-ROR1 cells, pH-dependent endocytosis reagent, FACS values for a group of binders are listed next.
Dear colleague, please return just the value in nM, with no unit written.

{"BINDER": "hz137G11D10-2.1 (antibody, human IgG1, kappa, V domains shown, Humanized, human IgG1/kappa) VH: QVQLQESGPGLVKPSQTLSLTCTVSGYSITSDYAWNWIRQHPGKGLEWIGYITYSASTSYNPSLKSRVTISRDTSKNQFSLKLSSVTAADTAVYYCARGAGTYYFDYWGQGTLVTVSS VL: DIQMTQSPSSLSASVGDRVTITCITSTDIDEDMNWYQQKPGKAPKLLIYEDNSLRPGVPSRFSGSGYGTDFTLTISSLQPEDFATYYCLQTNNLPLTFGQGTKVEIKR", "ENDPOINT_VALUE": 12.4}
{"BINDER": "UC-961 (antibody, V domains shown) VH: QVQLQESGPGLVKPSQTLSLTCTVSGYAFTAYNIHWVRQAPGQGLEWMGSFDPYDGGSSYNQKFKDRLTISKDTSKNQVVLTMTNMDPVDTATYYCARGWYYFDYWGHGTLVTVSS VL: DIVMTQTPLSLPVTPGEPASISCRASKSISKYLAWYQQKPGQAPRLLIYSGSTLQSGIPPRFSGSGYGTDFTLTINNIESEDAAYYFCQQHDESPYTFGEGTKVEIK", "ENDPOINT_VALUE": 17.7}
{"BINDER": "hz29H5D8-3.2 (antibody, human IgG1, kappa, V domains shown, Humanized, human IgG1/kappa) VH: QVQLVQSGAEVKKPGSSVKVSCKASGYTFTNYGISWVRQAPGQGLEWMGEIYPRSVNTYYSAKFKGRVTITADKSTSTAYMELSSLRSEDTAVYYCARHYYGSSLDYWGQGTLVTVSS VL: DIQMTQSPSSLSASVGDRVTITCITSSDIEDDMNWYQQKPGKAPKLLISEGNSLRPGVPSRFSSSGYGTDFTFTISSLQPEDIATYYCLQSDNIFTFGQGTKVEIKR", "ENDPOINT_VALUE": 5.19}

Now for a further binder.
Exercise: Identify measured Internalization EC50 (nM), NCI-H1975-ROR1 cells, pH-dependent endocytosis reagent, FACS associated with hz135A2B10-1.1 (antibody, human IgG1, kappa, V domains shown, Humanized, human IgG1/kappa) VH: QVQLVESGGGLVQPGGSLRLSCAASGFAFSTYGMAWVRQAPGKGLEWVASIHKGGFSTYYPDNVKGRFTISRDNAKNSLYLQMNSLRAEDTAVYYCARHDWDGAMDYWGQGTLVTVSS VL: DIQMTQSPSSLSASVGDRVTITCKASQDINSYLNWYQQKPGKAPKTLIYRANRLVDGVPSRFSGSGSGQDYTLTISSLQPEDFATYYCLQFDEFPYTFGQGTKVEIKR
Solution: 14.9
